# assayInfo: Metabolic stability in human liver microsomes assessed as parent compound remaining after 240 mins incubation by LC-MS/MS analysis
# Format: ADME, Microsome
# experimentalSetup: read-out: Stability
Field: remaining at 4 h. Provide a value for each of the compounds that follow.
Write the number in % without appending the unit.

Quick note, remaining at 4 h for CS(=O)(=O)N1CCC[C@H](NC(=O)[C@H](CCC2CCCCC2)NC(=O)c2ccc(CNC(=O)c3cnn(-c4ccccc4)c3N)cc2)C1 landed at 44

Quick note, remaining at 4 h for CS(=O)(=O)N1CCCC(NC(=O)[C@H](CCC2CCCCC2)NC(=O)c2ccc(CNC(=O)c3cnc4ccccn34)cc2)C1 (mixture of isomers) [SR-302] landed at 44
